Each recorded value in this set is attributed to patent US20250250357A1.

Recorded OD450 values for a group of binders are listed next.
Assayed system: T1, human MSLN-R1-his protein (human, UniProt Q13421 296-390)
T1 construct: also called hMSLN-R1-his; human MSLN-R1 protein; not shown: His tag
T1 chain: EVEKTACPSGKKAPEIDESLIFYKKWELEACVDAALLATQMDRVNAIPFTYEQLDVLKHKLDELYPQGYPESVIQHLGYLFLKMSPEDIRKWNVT
Assay remarks: ELISA, coated antigen; antibody 0.01 nM
Answer field: number only, no words.

# lookup: OD450 of S009-F1.57.1 human-murine chimeric antibody (antibody, human IgG1, kappa, V domains shown, Chimeric IgG1/kappa) VH: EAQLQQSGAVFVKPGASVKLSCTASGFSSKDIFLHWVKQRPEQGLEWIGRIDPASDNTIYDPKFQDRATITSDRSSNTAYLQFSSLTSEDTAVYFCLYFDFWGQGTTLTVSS VL: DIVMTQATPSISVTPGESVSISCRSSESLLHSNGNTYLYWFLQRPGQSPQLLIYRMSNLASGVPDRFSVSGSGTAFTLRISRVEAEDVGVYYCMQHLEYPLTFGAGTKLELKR
0.05

Next binder up: S009-F1.59.1 human-murine chimeric antibody (antibody, human IgG1, kappa, V domains shown, Chimeric IgG1/kappa) VH: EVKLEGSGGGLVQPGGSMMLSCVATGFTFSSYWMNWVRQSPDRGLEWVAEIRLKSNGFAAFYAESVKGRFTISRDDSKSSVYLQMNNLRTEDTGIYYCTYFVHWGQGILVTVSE VL: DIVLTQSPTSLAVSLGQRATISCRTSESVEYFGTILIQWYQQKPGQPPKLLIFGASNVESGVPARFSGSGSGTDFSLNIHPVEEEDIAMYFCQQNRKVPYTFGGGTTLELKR
0.05

Also S009-F1.25.10 human-murine chimeric antibody (antibody, human IgG1, kappa, V domains shown, Chimeric IgG1/kappa) VH: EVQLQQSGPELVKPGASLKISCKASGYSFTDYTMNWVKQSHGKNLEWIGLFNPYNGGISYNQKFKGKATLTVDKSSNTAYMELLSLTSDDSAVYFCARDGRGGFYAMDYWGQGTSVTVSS VL: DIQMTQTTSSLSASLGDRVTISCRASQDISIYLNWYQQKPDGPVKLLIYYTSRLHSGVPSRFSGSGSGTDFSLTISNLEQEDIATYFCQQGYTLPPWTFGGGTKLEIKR , if possible.
0.04

Next:
Name the reported OD450 value associated with the binder S009-F1.35.24 human-murine chimeric antibody (antibody, human IgG1, kappa, V domains shown, Chimeric IgG1/kappa) VH: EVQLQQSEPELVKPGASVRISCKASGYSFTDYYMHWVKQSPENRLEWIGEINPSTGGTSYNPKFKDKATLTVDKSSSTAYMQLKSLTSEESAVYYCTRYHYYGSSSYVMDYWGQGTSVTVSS VL: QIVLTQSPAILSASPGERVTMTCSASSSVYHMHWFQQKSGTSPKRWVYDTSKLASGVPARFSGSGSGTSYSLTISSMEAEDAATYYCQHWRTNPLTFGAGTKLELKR
0.04
